Experiment: mn = molality of the nth substance listed, in mol/kg
Conditions: 278.15 K; 101 kPa; Liquid; Alternating current cell with electrodes; m1 = 0.001
Known electrical conductivity of a selection of compounds
RECORDED_METRIC: electrical conductivity (S/m)

O=C([O-])O.[K+] [potassium bicarbonate] + O: 0.0074
O=S(=O)([O-])[O-].[Na+].[Na+] [sodium sulfate] + O: 0.0146
[Na+].[OH-] [sodium hydroxide] + O: 0.0167
[Cl-].[K+] [potassium chloride] + O: 0.0092

###

Assay: mn = molality of the nth substance listed, in mol/kg
Conditions: 318.15 K; 101 kPa; Liquid; Alternating current cell with electrodes; m1 = 0.001
Known electrical conductivity of a selection of compounds
RECORDED_METRIC: electrical conductivity (S/m)

[Cl-].[K+] [potassium chloride] + O: 0.0207
O=S(=O)([O-])[O-].[Na+].[Na+] [sodium sulfate] + O: 0.0348
O=C([O-])O.[K+] [potassium bicarbonate] + O: 0.0167
[Na+].[OH-] [sodium hydroxide] + O: 0.0333
